Hi there, I'd appreciate the recorded logP at 300 µM for every entry that follows.
Assay: 1-octanol/water partition coefficient, log P of the compound at 300 uM by UV-Vis spectrophotometric analysis
Type: physicochemical
Answers are plain numbers.

Take a look at these entries with their results.
> print(dat)
                                 mol.smiles  experimental.endpoint  quantitative.result
1  COc1ccc(/C=C/C(=O)c2cc(OC)c(OC)c(OC)c2)cc1OCCCC(=O)NCCCNCCCCNCCN         logP at 300 µM                -1.57
2  COc1ccc(/C=C/C(=O)c2cc(OC)c(OC)c(OC)c2)cc1O         logP at 300 µM                 2.99
3  COc1ccc(/C=C/C(=O)c2cc(OC)c(OC)c(OC)c2)cc1OCCCC(=O)NCCCCNCCCN         logP at 300 µM                -1.28
4  COc1ccc(/C=C/C(=O)c2cc(OC)c(OC)c(OC)c2)cc1         logP at 300 µM                  3.1
5  COc1cc(C(=O)/C=C/c2ccc(OCCCC(=O)NCCCNCCCCN)cc2)cc(OC)c1OC         logP at 300 µM                -1.43

# input So what does the record say about logP at 300 µM for COc1cc(C(=O)/C=C/c2ccc(OCCCC(=O)NCCCNCCCCNCCN)cc2)cc(OC)c1OC ?
# output -1.98

* * *

Test system: PC-3
Assay: Antiproliferative activity against human PC3 cells after 48 hrs by MTT assay
Type: functional, cell-based
Details: PC-3, 48 h
experimental_endpoint: log10 IC50 (log10 of the value in µM)
Recorded IC50 (log10, µM)

> print(dat)
                                 mol.smiles  experimental.endpoint  quantitative.result
1  COc1cc(C(=O)/C=C/c2ccc(OCCCC(=O)NCCCCNCCCN)cc2)cc(OC)c1OC             log10 IC50                 1.90

Batch request: log10 IC50 per item, same order as input.
1. COc1cc(C(=O)/C=C/c2ccc(OCCCC(=O)NCCCCN(CCCN)CCCCN)cc2)cc(OC)c1OC
2. COc1ccc(/C=C/C(=O)c2cc(OC)c(OC)c(OC)c2)cc1O
3. COc1ccc(/C=C/C(=O)c2cc(OC)c(OC)c(OC)c2)cc1OCCCC(=O)NCCCCNCCCN
4. COc1ccc(/C=C/C(=O)c2cc(OC)c(OC)c(OC)c2)cc1OCCCC(=O)NCCCCN(CCCN)CCCCN
5. COc1cc(C(=O)/C=C/c2ccc(OCCCC(=O)NCCCNCCCCNCCN)cc2)cc(OC)c1OC
6. COc1cc(C(=O)/C=C/c2ccc(OCCCC(=O)NCCCCN(CCCN)CCCCNCCCN)cc2)cc(OC)c1OC

# output
1.74
-1.05
1.71
1.78
1.53
1.91

Batch request: log10 IC50 per item, same order as input.
1. COc1ccc(/C=C/C(=O)c2cc(OC)c(OC)c(OC)c2)cc1OCCCC(=O)NCCCNCCCCN
2. COc1ccc(/C=C/C(=O)c2cc(OC)c(OC)c(OC)c2)cc1OCCCC(=O)NCCCNCCCCNCCN

# output
1: 1.91; 2: 1.50

Batch request: log10 IC50 per item, same order as input.
1. COc1ccc(/C=C/C(=O)c2cc(OC)c(OC)c(OC)c2)cc1
2. COc1ccc(/C=C/C(=O)c2cc(OC)c(OC)c(OC)c2)cc1OCCCC(=O)NCCCCN(CCCN)CCCCNCCCN

# output
1: 0.89; 2: 1.68

Just for reference, ChEMBL document CHEMBL4219036 is where these values come from.
